- test method notes: NCI Yeast Anticancer Drug Screen. Data for the rad50 strain (AID 155);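 also: 0% = growth of vehicle-only cultures of the same strain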
- measurement context: S. cerevisiae rad50 strain growth inhibition; at 50.0 µM
Compounds without any hit were thinned out: in the full panel of roughly 79,000, 15% have a hit. Activity calls are given as the source filed them. Rule as the data show it: active = growth inhibition above about 70%; inactive = the rest.
One label from this list, please: YES for active, NO for inactive

Q: // outcome(item) with item = Nc1ccc(Cl)cc1Cl
Result: NO

Q: // outcome(item) with item = CCOC(=O)/C(C#N)=C/N=c1ccccn1C
Result: NO

Q: // outcome(item) with item = O=c1[nH]cc(S)c(=O)[nH]1
Result: NO

Q: // outcome(item) with item = Oc1ccc(Cn2c(-c3ccc(O)cc3)nc3ccccc32)cc1
Result: NO

###

Listed here are compounds together with their documented growth inhibition.
- test method notes: NCI Yeast Anticancer Drug Screen. Data for the sgs1 mgt1 strain (AID 161);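 also: 0% = growth of cultures given vehicle only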
- measurement context: S. cerevisiae sgs1 mgt1 strain, at 50.0 µM, active compounds read high
This is part of a sample that, as a whole, favours compounds with a hit. Of some 79,000 tested, about 15% had one in any assay.
A number alone suffices; assume %.

CCOc1ccc(CCC(=O)O)cc1	-1.65
O=C(c1ccccc1)C(Br)C(Br)c1ccc([N+](=O)[O-])cc1 (stereo not drawn)	31.4
CC(=O)OCCn1c(Cc2ccc(Cl)cc2)nn(C(C)=O)c1=O	20.1
S=c1[nH]ncn1/N=C/c1ccccc1Cl	54.4
COc1ccc(C=C(c2ccc(OCc3ccccc3)cc2)c2ccc(OCc3ccccc3)cc2)cc1	6.55

// sample O=S(=O)(c1ccc(Br)cc1)C(F)(F)F , its growth inhibition was 0.1

// sample COC(=O)N1c2ccccc2N(C(=O)OC)c2c1oc1ccccc1c2=O , its growth inhibition was 33.6

// sample C[n+]1ccsn1 , its growth inhibition was -4.7

###

- test method notes: NCI Yeast Anticancer Drug Screen. Data for the cln2 rad14 strain (AID 165);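 also: 0% = growth equal to vehicle treated cultures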
- measurement context: S. cerevisiae cln2 rad14 strain, at 50.0 µM, active compounds read high
Compounds without any hit were thinned out: in the full panel of roughly 79,000, 15% have a hit.
measurement kind: growth inhibition (%)
A number alone suffices; assume %.

Below: 3 compounds and their reported growth inhibition.
Cc1ccc2c(c1)CN(C)CO2	-51.4
COc1ccc(NC(=O)CSc2nc(C)nc3c2sc(=S)n3-c2ccccc2)cc1	2.65
Nc1nc(-c2ccccc2)nc2nc[nH]c12	-2.2

// sample CC(=O)N1CC(C)(C)c2c1cc(C)c(O)c2C , its growth inhibition was -7.8

###

- test method notes: NCI Yeast Anticancer Drug Screen. Data for the sgs1 mgt1 strain (AID 161);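 also: 0% = growth of cultures given vehicle only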
- measurement context: S. cerevisiae sgs1 mgt1 strain, at 50.0 µM, active compounds read high
The panel holds about 79,000 compounds, 15% with a hit somewhere; the sample as a whole holds those more often.
measurement kind: growth inhibition (%)
A number alone suffices; assume %.

Below: 5 compounds and their reported growth inhibition.
O=S(=O)(Nc1ccccc1)c1cc(O)ccc1O	-9.75
COC1(OC)C(c2ccc([N+](=O)[O-])cc2)C([N+](=O)[O-])C1(OC)OC (stereo not drawn)	-32
CCN=C(N)CSS(=O)(=O)O	-32.8
CC(=O)NNc1nc(C)c(C(=O)/C=C/c2ccc(/C=C/C(=O)c3sc(NNC(C)=O)nc3C)cc2)s1	-37.6
O=C(O)c1ccccc1C(=O)OC1CC2CCC1C2 (stereo not drawn)	-10.4

// sample O=[N+]([O-])c1cccc(NC(c2ccccc2)S(=O)(=O)O)c1 (stereo not drawn) , its growth inhibition was 9.65

// sample [N-]=[N+]=Nc1ccccc1-c1ccc([N+](=O)[O-])cc1 , its growth inhibition was 11.1

// sample Nc1c(Br)c(Cl)c(Br)c2c1-c1ccc(Cl)cc1C2 , its growth inhibition was -1.4

// sample Cc1ccc2c(=O)[nH]cnc2c1 , its growth inhibition was 4.45

// sample CC(C)OC(=S)Nc1ccc(Cl)c(COC(C)(C)C)c1 , its growth inhibition was -4.65

// sample COc1ccc(C(=O)O)c2c(=O)c3ccccc3[nH]c12 , its growth inhibition was -8.55

// sample C/C=C/C=C\C(=O)C1c2cccc(O)c2C(=O)c2c(O)cc(C)cc21 (stereo not drawn) , its growth inhibition was 12.3

// sample Cc1cccc(C)c1NC(=O)/C(Cc1nc2ccc([N+](=O)[O-])cc2[nH]c1=O)=N\NC(N)=O , its growth inhibition was 30.9

// sample Nc1cccc(S(=O)(=O)Nc2ccccc2)c1 , its growth inhibition was 1.55

###

- test method notes: NCI Yeast Anticancer Drug Screen. Data for the mlh1 rad18 strain (AID 175)
- measurement context: S. cerevisiae mlh1 rad18 strain growth inhibition; at 50.0 µM; active compounds read high
This is part of a sample that, as a whole, favours compounds with a hit. Of some 79,000 tested, about 15% had one in any assay.
measurement kind: growth inhibition (%)
A number alone suffices; assume %.

Below: 3 compounds and their reported growth inhibition.
Cc1ccc(NC(=S)Nc2cccc(C(F)(F)F)c2)cc1C	20.6
COc1cccc2c1CCC(=O)C2C (centres undefined)	22.9
O=C1C2=C(c3ccccc31)C(c1ccc(Cl)cc1)N1C(=O)CCSC1=N2 (centres undefined)	25.3

# input for lookup
// sample COc1cc2nc(C(O)C(O)c3nc4cc(OC)c(OC)cc4[nH]3)[nH]c2cc1OC (centres undefined) , its growth inhibition was 38.7

###

- test method notes: NCI Yeast Anticancer Drug Screen. Data for the sgs1 mgt1 strain (AID 161);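 also: 0% = growth of cultures given vehicle only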
- measurement context: S. cerevisiae sgs1 mgt1 strain, at 50.0 µM, active compounds read high
- Experimental: Growth inhibition of yeast strains with defined genetic alterations is measured as a screen for potential anti-cancer activity. Selected strains with alterations in DNA damage repair or cell cycle control were exposed to compounds and growth inhibition was measured relative to vehicle treated controls. The strain used in this assay is sgs1 mgt1
About 79,000 compounds went through this panel and 15% of them were active in at least one assay; those are over-represented in the sample as a whole.
measurement kind: growth inhibition (%)
A number alone suffices; assume %.

Below: 2 compounds and their reported growth inhibition.
Cc1ccc(Cl)c(NC(=O)c2ccccc2Cl)c1	18.8
CC(C)(C=O)OC(=O)c1cc([N+](=O)[O-])cc([N+](=O)[O-])c1	27.4

// sample CCOC(=O)C1CNCCC1=O (stereo not given) , its growth inhibition was -4.15

// sample CCN(CC)CCCC(C)Nc1ccnc2ccc3nn(C)nc3c12 (stereo not given) , its growth inhibition was -15.2

// sample COC(=O)CSc1n[nH]c(-c2ccccc2)n1 , its growth inhibition was 7.2

// sample N#Cc1ccc(OC(=O)Nc2ccccc2Cl)cc1 , its growth inhibition was 21.4

// sample CCc1ccccc1NC(C)=O , its growth inhibition was -8.7

###

- test method notes: NCI Yeast Anticancer Drug Screen. Data for the cln2 rad14 strain (AID 165);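 also: 0% = growth equal to vehicle treated cultures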
- measurement context: S. cerevisiae cln2 rad14 strain, at 50.0 µM, active compounds read high
- Procedure: Growth inhibition of yeast strains with defined genetic alterations is measured as a screen for potential anti-cancer activity. Selected strains with alterations in DNA damage repair or cell cycle control were exposed to compounds and growth inhibition was measured relative to vehicle treated controls. The strain used in this assay is cln2 rad14
Compounds without any hit were thinned out: in the full panel of roughly 79,000, 15% have a hit.
measurement kind: growth inhibition (%)
A number alone suffices; assume %.

O=C(O)/C(Cl)=C(\Cl)C(=O)NC1C2CC3CC(C2)CC1C3 (stereo unspecified)	28.8
CC(=O)OCC1OC2OC(C)(C)OC2C2OC(C)(C)OC12 (stereo unspecified)	-4.65
O=C(O)COc1ccc2ccccc2c1 (tested in a mixture with another compound)	-37.7
C=CC(=NC(C)(C)C)Nc1ccc(Cl)cc1	-14.6
O=C(NC12CC3CC(CC(C3)C1)C2)C(=O)c1c[nH]c2ccccc12	24.6

// sample S=C(S)NCCCn1ccnc1 , its growth inhibition was -15.9

// sample CC(NC(=O)OCc1ccccc1)NC(=O)OC(C)(C)C (stereo unspecified) , its growth inhibition was -13.2

// sample Cc1c(Cl)cccc1NC(=O)Nc1ccccc1 , its growth inhibition was -8.1

// sample CCNC(=O)C(C(=O)O)c1ccccc1 (stereo unspecified) , its growth inhibition was -21.1

// sample Brc1cc(Br)c(-c2c(Br)cc(Br)cc2Br)c(Br)c1 , its growth inhibition was 4.2

// sample Clc1nc2ccccc2s1 , its growth inhibition was -38

###

- test method notes: NCI Yeast Anticancer Drug Screen. Data for the rad50 strain (AID 155);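 also: 0% = growth of vehicle-only cultures of the same strain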
- measurement context: S. cerevisiae rad50 strain growth inhibition; at 50.0 µM; active compounds read high
Compounds without any hit were thinned out: in the full panel of roughly 79,000, 15% have a hit.
measurement kind: growth inhibition (%)
A number alone suffices; assume %.

Below: 3 compounds and their reported growth inhibition.
N#Cc1cc2ccccc2n(Cc2ccccc2)c1=O	-8.85
CCCCCCCCCCCCCCCCCC(=O)N/N=C\c1ccc(O)c(OC)c1	-11.6
O=[N+]([O-])c1c(O)c2nonc2c2nn(-c3ccccc3)nc12	1.7

// sample O=C(Cc1cc[n+]([O-])cc1)C(=O)Nc1cc(Cl)c(Cl)cc1Cl , its growth inhibition was -27.4

// sample CCOC(=O)C(C(C)=O)C(c1ccc(N(C)C)cc1)C(C(C)=O)C(=O)OCC (stereo not drawn) , its growth inhibition was 8.75

// sample CC(=O)NC(C(=O)O)C(C)(C)S (stereo not drawn) , its growth inhibition was -1.85

// sample Nc1ncnc2c1ncn2[C@@H]1C[C@H]1CO , its growth inhibition was -39.6

// sample C[N+](C)(Cn1nc(Cl)c2ccc([N+](=O)[O-])cc21)Cn1nc(Cl)c2ccc([N+](=O)[O-])cc21 , its growth inhibition was 43.6

// sample CC1=Cc2cc3[n-]c(cc4nc(cc5[n-]c(cc1n2)c(C)c5CCC(=O)O)C(CCC(=O)O)=C4C)cc3C.[Cu+2] , its growth inhibition was 0.9

// sample O=c1[nH]c2cc([N+](=O)[O-])ccc2nc1/C=C(\O)c1ccc(Cl)cc1 , its growth inhibition was -23.2

// sample C/C(=N\NC(N)=O)c1ccc(Cl)c(-n2cccc2)c1 , its growth inhibition was 12.3

// sample CCC(OC(=O)Nc1ccc(S(=O)(=O)NC2CCCCC2)cc1)c1ccco1 (stereo not drawn) , its growth inhibition was 26.9

// sample CC(=O)C(=CC=C(c1ccc(N(C)C)cc1)c1ccc(N(C)C)cc1)C(C)=O , its growth inhibition was -45.3

Ref: PubChem BioAssay (NCI)
